# System: IL-1β
# test.summary: LPS-induced IL-1β production in RAW264.7 macrophages (ELISA)
# Format: cell-based
# protocol.conditions: Mus musculus, LPS 5 μg/mL, 24 h
# Method: RAW264.7 cell, a murine macrophage cell line, was purchased from American Type Culture Collection (ATCC, Manassas, VA, USA). […] RAW264.7 cells (1 × 10^5/well) were seeded into 96-well plates in triplicate and were treated with DMEM media only or 5 μg/mL of LPS or with indicated concentrations of compounds for 24 h. Supernatants were collected and then quantified with the mouse TNF-α, IL-6, and IL-1β ELISA kits following the manufacturer’s instructions.
Please provide measured IC50 for the entries that follow.
Note: unit µM is implicit; provide only the numeric part.

Return reported IC50; argument: Cc1oc2cc1C(=O)NCCCCCCCCCCCC(=O)N[C@@H](C(C)C)C(=O)N[C@@H](Cc1ccccc1)C(=O)Nc1ccc(cc1)C(C)(C)/C=C\2C(C)(C)C [6e]
3.05

IC50 for Cc1oc2cc1C(=O)NCCCCCCCCCCCC(=O)N[C@@H](Cc1ccccc1)C(=O)Nc1ccc(cc1)C(C)(C)/C=C\2C(C)(C)C [6a] ?
12.8

Which IC50 value belongs to Cc1oc2cc1C(=O)NCCCCCCCCCCCC(=O)N[C@@H](C)C(=O)Nc1ccc(cc1)C(C)(C)/C=C\2C(C)(C)C [6b] ?
3.4

What does the record list as IC50 for Cc1oc2cc1C(=O)NCCCCCCCCCCCC(=O)N1CCC[C@H]1C(=O)Nc1ccc(cc1)C(C)(C)/C=C\2C(C)(C)C [6d] ?
17.6

Look up IC50: Cc1oc2cc1C(=O)NCCCCCCCCCCCC(=O)N[C@@H](C(C)C)C(=O)Nc1ccc(cc1)C(C)(C)/C=C\2C(C)(C)C [6c]
4.38

# query: IC50 of entry CSCC[C@@H]1NC(=O)CCCCCCCCCCCNC(=O)c2cc(oc2C)/C(C(C)(C)C)=C\C(C)(C)c2ccc(cc2)NC(=O)[C@H](Cc2ccccc2)NC1=O [6f]
8.61

Which IC50 is reported for this molecule? Cc1oc2cc1C(=O)N[C@@H](C(C)C)C(=O)NCCCCCCCCCCCC(=O)Nc1ccc(cc1)C(C)(C)/C=C\2C(C)(C)C [6h]
0.0041

Name the reported IC50 value associated with the molecule Cc1oc2cc1C(=O)NCCCCCCCCCCCC(=O)Nc1ccc(cc1)C(C)(C)/C=C\2C(C)(C)C [6g]
0.59

====

# test.summary: Cell viability assay (MTT) in RAW264.7 cells
# Format: cell-based, mouse
# protocol.conditions: mouse, RAW264.7 macrophage cells; RAW264.7 cells, 24 h, MTT; read-out: Cytotoxicity CC50
Labelling field: enter Met if recorded CC50 at 24 h is less than 60 µM. Enter Not met if it equals or exceeds that cut-off.

Is it true that CC50 at 24 h reported for `Cc1oc2cc1C(=O)N[C@@H](C(C)C)C(=O)NCCCCCCCCCCCC(=O)Nc1ccc(cc1)C(C)(C)/C=C\2C(C)(C)C` is less than 60 µM?
Met

Decide: CC50 at 24 h of `CSCC[C@@H]1NC(=O)CCCCCCCCCCCNC(=O)c2cc(oc2C)/C(C(C)(C)C)=C\C(C)(C)c2ccc(cc2)NC(=O)[C@H](Cc2ccccc2)NC1=O` strictly below 60 µM?
Not met

In the record for `Cc1oc2cc1C(=O)NCCCCCCCCCCCC(=O)N[C@@H](C(C)C)C(=O)Nc1ccc(cc1)C(C)(C)/C=C\2C(C)(C)C` , is CC50 at 24 h less than 60 µM?
Not met

Please indicate whether the reported CC50 at 24 h of `Cc1oc2cc1C(=O)NCCCCCCCCCCCC(=O)N[C@@H](C(C)C)C(=O)N[C@@H](Cc1ccccc1)C(=O)Nc1ccc(cc1)C(C)(C)/C=C\2C(C)(C)C` is strictly below 60 µM.
Not met

Please state whether CC50 at 24 h is below 60 µM for `Cc1oc2cc1C(=O)NCCCCCCCCCCCC(=O)N[C@@H](Cc1ccccc1)C(=O)Nc1ccc(cc1)C(C)(C)/C=C\2C(C)(C)C`
Not met

Item `Cc1oc2cc1C(=O)NCCCCCCCCCCCC(=O)N1CCC[C@H]1C(=O)Nc1ccc(cc1)C(C)(C)/C=C\2C(C)(C)C` : CC50 at 24 h beneath 60 µM, strictly?
Met

I'd appreciate it if you could check whether `Cc1oc2cc1C(=O)NCCCCCCCCCCCC(=O)N[C@@H](C)C(=O)Nc1ccc(cc1)C(C)(C)/C=C\2C(C)(C)C` has CC50 at 24 h smaller than 60 µM.
Met

Does this compound meet the criterion CC50 at 24 h < 60 µM? `Cc1oc2cc1C(=O)NCCCCCCCCCCCC(=O)Nc1ccc(cc1)C(C)(C)/C=C\2C(C)(C)C`
Not met

All figures here come from paper PMC7910576.
